- PROCEDURE DETAILS: refractive index (Na D-line) (dimensionless)
- CONDITION SUMMARY: 293.15 K; 101.33 kPa; Liquid; Standard Abbe refractometry
OBSERVATION TYPE: refractive index
Respond numerically, and do not add a unit to the figure.

Example entries begin here.
> print(dat)
                                   molecule  readout.number
1  CCCCCCCCCCCCCC[P+](CCCCCC)(CCCCCC)CCCCCC.O=S(=O)([N-]S(=O)(=O)C(F)(F)F)C(F)(F)F         1.45164
2  CCCCCCn1cc[n+](C)c1.F[P-](F)(F)(F)(F)F [1-hexyl-3-methylimidazolium hexafluorophosphate]         1.41849
3  CCCCCCCCn1cc[n+](C)c1.O=S(=O)([N-]S(=O)(=O)C(F)(F)F)C(F)(F)F         1.43457
4  CCCCCC[n+]1ccn(C)c1.O=S(=O)([N-]S(=O)(=O)C(F)(F)F)C(F)(F)F         1.43155
5  CCCCCCCC[n+]1ccn(C)c1.F[P-](F)(F)(F)(F)F [1-octyl-3-methylimidazolium hexafluorophosphate]         1.42452

Could you share which refractive index value was measured for `CCCCCCCCCCn1cc[n+](C)c1.O=S(=O)([N-]S(=O)(=O)C(F)(F)F)C(F)(F)F` ? 1.43658

Could you share which refractive index value was measured for CCCCn1cc[n+](C)c1.F[P-](F)(F)(F)(F)F [1-butyl-3-methylimidazolium hexafluorophosphate] ? 1.41045

Could you share which refractive index value was measured for CC(=O)[O-].CCCCn1cc[n+](C)c1 [1-butyl-3-methylimidazolium acetate] ? 1.49481

Could you share which refractive index value was measured for `CCCC[n+]1ccn(C)c1.O=S(=O)([N-]S(=O)(=O)C(F)(F)F)C(F)(F)F` ? 1.42853

Could you share which refractive index value was measured for CCCCn1cc[n+](C)c1.O=S(=O)([O-])C(F)(F)F [1-butyl-3-methylimidazolium trifluoromethanesulfonate] ? 1.43758

Could you share which refractive index value was measured for CCCCn1cc[n+](C)c1.COS(=O)(=O)[O-] [1-butyl-3-methylimidazolium methyl sulfate] ? 1.47876

Could you share which refractive index value was measured for `CCn1cc[n+](C)c1.O=S(=O)([N-]S(=O)(=O)C(F)(F)F)C(F)(F)F` ? 1.42351

Could you share which refractive index value was measured for `CCCCCCCCCCCCCC[P+](CCCCCC)(CCCCCC)CCCCCC.O=S(=O)([O-])C(F)(F)F` ? 1.45967

Could you share which refractive index value was measured for CC(=O)[O-].CCCCCCCCCCCCCC[P+](CCCCCC)(CCCCCC)CCCCCC [trihexyl(tetradecyl)phosphonium acetate] ? 1.48377

Could you share which refractive index value was measured for `CCCCCCCCCCCCn1cc[n+](C)c1.O=S(=O)([N-]S(=O)(=O)C(F)(F)F)C(F)(F)F` ? 1.43958

Could you share which refractive index value was measured for CCCCn1cc[n+](C)c1.F[B-](F)(F)F [1-butyl-3-methylimidazolium tetrafluoroborate] ? 1.42251

###

In this section, each of the compounds is paired with its reported mass density.
- CONDITION SUMMARY: 293.15 K; 101.33 kPa; Liquid; Vibrating tube method
± gives the expanded uncertainty stated by the source.
Value and unit, in that order.

> print(dat)
                                   compound              result
1  CCCCn1cc[n+](C)c1.F[B-](F)(F)F [1-butyl-3-methylimidazolium tetrafluoroborate]    1202.9 ± 2 kg/m3
2  CCn1cc[n+](C)c1.O=S(=O)([N-]S(=O)(=O)C(F)(F)F)C(F)(F)F  1519.7 ± 2.1 kg/m3
3  CCCCCCCCCCn1cc[n+](C)c1.O=S(=O)([N-]S(=O)(=O)C(F)(F)F)C(F)(F)F    1282.8 ± 2 kg/m3
4  CCCCCC[n+]1ccn(C)c1.O=S(=O)([N-]S(=O)(=O)C(F)(F)F)C(F)(F)F  1375.5 ± 2.1 kg/m3

Let us move to another entry and its mass density.
Could you share which mass density value was measured for `CCCC[n+]1ccn(C)c1.O=S(=O)([N-]S(=O)(=O)C(F)(F)F)C(F)(F)F` ? 1440.8 ± 2.1 kg/m3
